- Tested on: IFIT2
- Test summary: Single-point screen: IFIT2 activation (Lucia luciferase, QUANTI-Luc)
- Assay type: cell-based, human
- Condition info: Homo sapiens, 24 h; A549-Dual cells, compound 50 μM pre-treatment, NP-1+mRNA 20 ng/well + IFN; read-out: fold IFIT over IFN
Counter-ions that a name gives are not always drawn.
Would you kindly list fold induction at 50 µM for each of these molecules?
Give bare numbers.

Use the examples below as a reference point.
C[C@@H](Oc1ccc2[nH]nc(/C=C/c3cnn(CCO)c3)c2c1)c1c(Cl)cncc1Cl [LY2874455]; 0.09
COc1cc(Nc2ncc3ccn(-c4cccc(CCC#N)c4)c3n2)cc(OC)c1OC [Casein Kinase II Inhibitor IV]; 0.79
COCCOc1ccc(-c2cn(-c3ccccc3)c3nc[nH]c(=O)c23)cc1 [DMX-5804]; 0.4
C[C@@]1(O)CCC[C@H]1n1c(=O)c(C(F)F)cc2cnc(NC3CCN(S(C)(=O)=O)CC3)nc21 [PF-06873600]; 1.08
CN(c1ccc(NC(=O)Nc2ccc(OC(F)(F)F)cc2)cc1)c1ccnc(Nc2cccc(S(N)(=O)=O)c2)n1 [GW806742X (hydrochloride)]; 3.93
Cc1cc(O)c(-c2ccc([C@@H](C)CN)cc2)c2c1[nH]c(=O)c1sccc12 [OTS514]; 0.4
Cc1nc2c(NCc3cccc(S(C)(=O)=O)c3)nccn2c1-c1ccc(O)c(F)c1 [BF738735]; 0.37

# evaluate next
Short answer for CN1CC[C@@H](c2c(O)cc(O)c3c(=O)cc(-c4ccc(C(F)(F)F)cc4Cl)oc23)[C@@H]1CO [Voruciclib (hydrochloride)] : fold induction at 50 µM was 0.8

###

- System: IFIT2
- Test summary: Single-point screen: IFIT2 activation (Lucia luciferase, QUANTI-Luc)
- Assay type: cell-based, human
- Condition info: Homo sapiens, 24 h; A549-Dual cells, compound 50 μM pre-treatment, NP-1+mRNA 20 ng/well + IFN; read-out: fold IFIT over IFN
Where a name gives a salt, the structure may show the parent alone.
Readout name: fold induction at 50 µM

Consider the following illustrative entries.
Oc1cccc(Nc2ncc(F)c(Nc3cccc(O)c3)n2)c1; 1.33
CC[C@H](CO)Nc1nc(NCc2ccccc2)c2ncn(C(C)C)c2n1; 1.32
CCN1CCN(Cc2ccc(NC(=O)Nc3ccc(Oc4cc(NC)ncn4)cc3)cc2C(F)(F)F)CC1; 0.19
Cn1nccc1Nc1nccc(-c2ccn([C@H](CO)c3ccc(Cl)c(F)c3)c(=O)c2)n1 [Ravoxertinib hydrochloride]; 0.24

Please examine the following record next.
Record for `O=C1NCCSc2c1sc1ccc(O)cc21` under target or system IFIT2: fold induction at 50 µM reported as 2.31

###

Exercise: for every item that follows, state its recorded fold induction at 50 µM.
- System: IFIT2
- Test summary: Single-point screen: IFIT2 activation (Lucia luciferase, QUANTI-Luc)
- Assay type: cell-based, human
- Condition info: Homo sapiens, 24 h; A549-Dual cells, compound 50 μM pre-treatment, NP-1+mRNA 20 ng/well + IFN; read-out: fold IFIT over IFN
Counter-ions that a name gives are not always drawn.

C[C@H](Nc1cc(-c2cnn(C)c2)cc(Nc2cnccn2)n1)c1ccc(F)cc1; 1.89

# per-item lookup of fold induction at 50 µM; items listed below
1. CN1CC[C@H](c2c(O)cc(O)c3c(=O)cc(-c4ccc(C(F)(F)F)cc4Cl)oc23)[C@H]1CO [(2S,3R)-Voruciclib (hydrochloride)]
2. Cc1cc(F)c(C(=O)Nc2cccc(-c3nncn3C(C)C)n2)cc1-n1cnc(C2CC2)c1
3. Cc1cnc(-c2cnc(NCCNc3ccc(C#N)cn3)nc2-c2ccc(Cl)cc2Cl)[nH]1 [CHIR-99021 (monohydrochloride)]
4. Cl.O=C(NC1CCNCC1)c1n[nH]cc1NC(=O)c1c(Cl)cccc1Cl [AT7519 (Hydrochloride)]
5. C[C@H](Nc1cc(-c2cnn(C)c2)cc(Nc2cnccn2)n1)c1ccc(F)cc1.Cl [Ilginatinib hydrochloride]
6. COc1ccc(F)cc1-c1cc(NC(=O)[C@@H]2CCCNC2)ncc1Cl

Reply:
1.09
1.43
0.35
0.88
3.17
1.06

Reported fold induction at 50 µM ( `Cc1ncc(-c2ccnc(Nc3ccc(S(C)(=O)=O)cc3)n2)n1C(C)C` ) = 2.39

###

- Test system: IFIT2
- Test summary: Single-point screen: IFIT2 activation (Lucia luciferase, QUANTI-Luc)
- Type: cell-based, human
- Condition info: A549-Dual cells, compound 50 μM pre-treatment, NP-1+mRNA 20 ng/well + IFN
Counter-ions that a name gives are not always drawn.
Exercise: for every item that follows, state its recorded fold IFIT over IFN.
One number for each entry, in fold.

COc1ccc(-c2c[nH]c3nccc(-c4ccsc4)c23)c(OC)c1; 1.61

State the recorded fold IFIT over IFN for every item in the following list.
1. COc1ccc(CCNCc2ccc(OCc3ccc(Cl)nc3)c(OC)c2)cc1OC [SBE13 (Hydrochloride)]
2. O=C1Nc2ccccc2/C1=C/c1ccccn1
3. Cn1nc(C(C)(C)C)cc1NC(=O)Nc1ccc(Oc2ccncc2)cc1
4. Cc1[nH]ncc1-c1cc2nc([C@H]3CC4CCN3CC4)[nH]c(=O)c2s1 [(R)-Simurosertib]
5. Cc1cc(Nc2cc(Cl)nc(Oc3ccc([N+](=O)[O-])cc3)n2)n[nH]1

Reply:
1. 0.32
2. 0.65
3. 1.93
4. 1.84
5. 1.09

###

I'd be grateful if you could share measured fold induction at 50 µM for these entries.
- System: A549-Dual cells
- Test summary: Single-point kinase inhibitor library screen: nLuc expression from NP-1+mRNA-nLuc in IFN-treated cells
- Assay type: cell-based, human
- Condition info: Homo sapiens, compound 50 μM pre-treatment, NP-1+mRNA 20 ng/well + IFN, read-out: fold nLuc over RNA + IFN
Where a name gives a salt, the structure may show the parent alone.
Give bare numbers.

CN1CC[C@@H](c2c(O)cc(O)c3c(=O)cc(-c4ccc(C(F)(F)F)cc4Cl)oc23)[C@@H]1CO [Voruciclib (hydrochloride)]; 274

Hi there! I need fold induction at 50 µM for each item below, if you can.
1. CCN1CCN(Cc2ccc(NC(=O)Nc3ccc(Oc4cc(NC)ncn4)cc3)cc2C(F)(F)F)CC1 [AST 487]
2. COc1cc(Nc2ncc3ccn(-c4cccc(CCC#N)c4)c3n2)cc(OC)c1OC [Casein Kinase II Inhibitor IV]

Reply:
1: 183; 2: 126

###

- Test system: A549-Dual cells
- Test summary: Single-point kinase inhibitor library screen: nLuc expression from NP-1+mRNA-nLuc in IFN-treated cells
- Type: cell-based, human
- Condition info: Homo sapiens, compound 50 μM pre-treatment, NP-1+mRNA 20 ng/well + IFN, read-out: fold nLuc over RNA + IFN
Readout name: fold induction at 50 µM
Answers are plain numbers.

Cc1nc2c(NCc3cccc(S(C)(=O)=O)c3)nccn2c1-c1ccc(O)c(F)c1; 239

Look up fold induction at 50 µM for the entries below, preserving their order.
1. O=C1NCCSc2c1sc1ccc(O)cc21
2. Cl.O=C(NC1CCNCC1)c1n[nH]cc1NC(=O)c1c(Cl)cccc1Cl [AT7519 (Hydrochloride)]

Reply:
1: 187; 2: 123
